Tested on: 317291-083-R-J1-PDC complex spheroid growth
assay overview: Anticancer human tumor 317291-083-R-J1-PDC patient-derived soft tissue sarcoma cell line growth inhibition [Asc]
setup conditions: curve of first compound; second compound 0.0949 µM
quantity name: IC50 (nM)

A: O=C(c1ccc(F)c(F)c1Nc1ccc(I)cc1F)N1CC(O)([C@@H]2CCCCN2)C1 + CCN1C(C(=O)NC23CCC(C(=O)O)(CC2)CC3)C(c2cccc(Cl)c2F)C2(C(=O)Nc3cc(Cl)ccc32)C12CCCCC2
B: COc1c(OCCCN2CCOCC2)ccc2c3n(c(=NC(=O)c4cnc(N)nc4)nc12)CCN3 + CCN1C(C(=O)NC23CCC(C(=O)O)(CC2)CC3)C(c2cccc(Cl)c2F)C2(C(=O)Nc3cc(Cl)ccc32)C12CCCCC2
C: CCN1CCN(Cc2ccc(Nc3ncc(F)c(-c4cc(F)c5nc(C)n(C(C)C)c5c4)n3)nc2)CC1 + CCN1C(C(=O)NC23CCC(C(=O)O)(CC2)CC3)C(c2cccc(Cl)c2F)C2(C(=O)Nc3cc(Cl)ccc32)C12CCCCC2
Query: # sort list by recorded IC50, greatest to least Please respond by ranking the labels in the order requested.
Result: C, A, B

###

Test system: 317291-083-R-J1-PDC complex spheroid growth
assay overview: Anticancer human tumor 317291-083-R-J1-PDC cell line growth inhibition [Asc];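 also: compound exposure lasted seven days after spheroids formed for three days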;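 as to viability, T/C: 100% = DMSO vehicle control wells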
setup conditions: second compound 0.0316 µM; first compound 10 µM; stronger effect = lower value
quantity name: viability, T/C (%)
Response body: numeric value in %, unit text excluded.

Sample answers from the record:
C=CC(=O)N1CCN(c2nc(=O)n(-c3c(C)ccnc3C(C)C)c3nc(-c4c(O)cccc4F)c(F)cc23)C(C)C1 (stereo not given) + Cc1c(S(C)(=O)=O)c(-c2cc(F)cc(N3CCN(c4ccc(NS(=O)(=O)c5ccc(NC(CCN6CCC(C(=O)OCCCP(=O)(O)O)CC6)CSc6ccccc6)c(S(=O)(=O)C(F)(F)F)c5)cc4)CC3)c2)c(-c2ccc(Cl)cc2)n1C(C)C | 66.1
C=C(F)C(=O)N1CCN(c2nc(OCC3CCCN3C)nc3c2CCN(c2cccc4cccc(Cl)c24)C3)CC1CC#N (stereo not given) + CNC(C)C(=O)NC1CN(S(=O)(=O)c2cccc(S(=O)(=O)N3CCC4CCC(C(=O)NC(c5ccccc5)c5ccccc5)N4C(=O)C(NC(=O)C(C)NC)C3)c2)CCC2CCC(C(=O)NC(c3ccccc3)c3ccccc3)N2C1=O | 0.1
O=C(c1cc(Cc2n[nH]c(=O)c3ccccc23)ccc1F)N1CCN(C(=O)C2CC2)CC1 + Cc1c(S(C)(=O)=O)c(-c2cc(F)cc(N3CCN(c4ccc(NS(=O)(=O)c5ccc(NC(CCN6CCC(C(=O)OCCCP(=O)(O)O)CC6)CSc6ccccc6)c(S(=O)(=O)C(F)(F)F)c5)cc4)CC3)c2)c(-c2ccc(Cl)cc2)n1C(C)C | 41.5
C=C(F)C(=O)N1CCN(c2nc(OCC3CCCN3C)nc3c2CCN(c2cccc4cccc(Cl)c24)C3)CC1CC#N (stereo not given) + Cc1c(S(C)(=O)=O)c(-c2cc(F)cc(N3CCN(c4ccc(NS(=O)(=O)c5ccc(NC(CCN6CCC(C(=O)OCCCP(=O)(O)O)CC6)CSc6ccccc6)c(S(=O)(=O)C(F)(F)F)c5)cc4)CC3)c2)c(-c2ccc(Cl)cc2)n1C(C)C | 0.54

Turning now to a further molecule:
Query: # lookup: 317291-083-R-J1-PDC complex spheroid growth viability, T/C, key = C#Cc1c(F)ccc2cc(O)cc(-c3ncc4c(N5CC6CCC(C5)N6)nc(OCC56CCCN5CC(F)C6)nc4c3F)c12 (stereo not given) + CNC(C)C(=O)NC1CN(S(=O)(=O)c2cccc(S(=O)(=O)N3CCC4CCC(C(=O)NC(c5ccccc5)c5ccccc5)N4C(=O)C(NC(=O)C(C)NC)C3)c2)CCC2CCC(C(=O)NC(c3ccccc3)c3ccccc3)N2C1=O
Result: 23.5

###

Listing: viability, T/C of selected molecules
System: 317291-083-R-J1-PDC complex spheroid growth
assay overview: Anticancer human tumor 317291-083-R-J1-PDC cell line growth inhibition [Asc];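 also: compound exposure lasted seven days after spheroids formed for three days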;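 as to viability, T/C: 100% = DMSO vehicle control wells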
setup conditions: second compound 0.1 µM; first compound 0.0316 µM; stronger effect = lower value
Response body: numeric value in %, unit text excluded.

Sample answers from the record:
Cn1ncnc1[C@H]1c2n[nH]c(=O)c3cc(F)cc(c23)N[C@@H]1c1ccc(F)cc1 + CNC(C)C(=O)NC1CN(S(=O)(=O)c2cccc(S(=O)(=O)N3CCC4CCC(C(=O)NC(c5ccccc5)c5ccccc5)N4C(=O)C(NC(=O)C(C)NC)C3)c2)CCC2CCC(C(=O)NC(c3ccccc3)c3ccccc3)N2C1=O | 39.3
C=C(F)C(=O)N1CCN(c2nc(OCC3CCCN3C)nc3c2CCN(c2cccc4cccc(Cl)c24)C3)CC1CC#N (stereo not drawn) + CNC(C)C(=O)NC1CN(S(=O)(=O)c2cccc(S(=O)(=O)N3CCC4CCC(C(=O)NC(c5ccccc5)c5ccccc5)N4C(=O)C(NC(=O)C(C)NC)C3)c2)CCC2CCC(C(=O)NC(c3ccccc3)c3ccccc3)N2C1=O | 59.1

Query: # lookup: 317291-083-R-J1-PDC complex spheroid growth viability, T/C, key = COc1c(OCCCN2CCOCC2)ccc2c3n(c(=NC(=O)c4cnc(N)nc4)nc12)CCN3 + Cc1c(S(C)(=O)=O)c(-c2cc(F)cc(N3CCN(c4ccc(NS(=O)(=O)c5ccc(NC(CCN6CCC(C(=O)OCCCP(=O)(O)O)CC6)CSc6ccccc6)c(S(=O)(=O)C(F)(F)F)c5)cc4)CC3)c2)c(-c2ccc(Cl)cc2)n1C(C)C
Result: 62.5

###

Tested on: 317291-083-R-J1-PDC complex spheroid growth
assay overview: Anticancer human tumor 317291-083-R-J1-PDC cell line growth inhibition [Asc];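 also: compound exposure lasted seven days after spheroids formed for three days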
setup conditions: curve of first compound; second compound 0.1 µM
Listing: pIC50 of selected compounds
Please express pIC50 as -log10 of the molar concentration.

Sample answers from the record:
C=C(F)C(=O)N1CCN(c2nc(OCC3CCCN3C)nc3c2CCN(c2cccc4cccc(Cl)c24)C3)CC1CC#N (centres undefined) + CNC(C)C(=O)NC1CN(S(=O)(=O)c2cccc(S(=O)(=O)N3CCC4CCC(C(=O)NC(c5ccccc5)c5ccccc5)N4C(=O)C(NC(=O)C(C)NC)C3)c2)CCC2CCC(C(=O)NC(c3ccccc3)c3ccccc3)N2C1=O | 7.15
Cn1ncnc1[C@H]1c2n[nH]c(=O)c3cc(F)cc(c23)N[C@@H]1c1ccc(F)cc1 + CNC(C)C(=O)NC1CN(S(=O)(=O)c2cccc(S(=O)(=O)N3CCC4CCC(C(=O)NC(c5ccccc5)c5ccccc5)N4C(=O)C(NC(=O)C(C)NC)C3)c2)CCC2CCC(C(=O)NC(c3ccccc3)c3ccccc3)N2C1=O | 7.76
COc1c(OCCCN2CCOCC2)ccc2c3n(c(=NC(=O)c4cnc(N)nc4)nc12)CCN3 + CNC(C)C(=O)NC1CN(S(=O)(=O)c2cccc(S(=O)(=O)N3CCC4CCC(C(=O)NC(c5ccccc5)c5ccccc5)N4C(=O)C(NC(=O)C(C)NC)C3)c2)CCC2CCC(C(=O)NC(c3ccccc3)c3ccccc3)N2C1=O | 8.27

Turning now to a further compound:
Query: For the compound Cc1nc(N2CCC3(CC2)COC(C)C3N)c(CO)nc1Sc1ccnc(N)c1Cl (centres undefined) + CNC(C)C(=O)NC1CN(S(=O)(=O)c2cccc(S(=O)(=O)N3CCC4CCC(C(=O)NC(c5ccccc5)c5ccccc5)N4C(=O)C(NC(=O)C(C)NC)C3)c2)CCC2CCC(C(=O)NC(c3ccccc3)c3ccccc3)N2C1=O , report pIC50.
Result: 7.05

###

Tested on: 317291-083-R-J1-PDC complex spheroid growth
assay overview: Anticancer human tumor 317291-083-R-J1-PDC cell line growth inhibition [Asc];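 also: compound exposure lasted seven days after spheroids formed for three days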;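 as to viability, T/C: 100% = DMSO vehicle control wells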
setup conditions: second compound 0.316 µM; first compound 0.0949 µM; stronger effect = lower value
quantity name: viability, T/C (%)
Response body: numeric value in %, unit text excluded.

Sample answers from the record:
CCN1C(C(=O)NC23CCC(C(=O)O)(CC2)CC3)C(c2cccc(Cl)c2F)C2(C(=O)Nc3cc(Cl)ccc32)C12CCCCC2 (stereo unspecified) + CNC(C)C(=O)NC1CN(S(=O)(=O)c2cccc(S(=O)(=O)N3CCC4CCC(C(=O)NC(c5ccccc5)c5ccccc5)N4C(=O)C(NC(=O)C(C)NC)C3)c2)CCC2CCC(C(=O)NC(c3ccccc3)c3ccccc3)N2C1=O | 45.5
NC(=O)C(=Cn1cnc(-c2cc(C(F)(F)F)cc(C(F)(F)F)c2)n1)c1cncnc1 + Cc1c(S(C)(=O)=O)c(-c2cc(F)cc(N3CCN(c4ccc(NS(=O)(=O)c5ccc(NC(CCN6CCC(C(=O)OCCCP(=O)(O)O)CC6)CSc6ccccc6)c(S(=O)(=O)C(F)(F)F)c5)cc4)CC3)c2)c(-c2ccc(Cl)cc2)n1C(C)C | 1.71
NC(=O)C(=Cn1cnc(-c2cc(C(F)(F)F)cc(C(F)(F)F)c2)n1)c1cncnc1 + CNC(C)C(=O)NC1CN(S(=O)(=O)c2cccc(S(=O)(=O)N3CCC4CCC(C(=O)NC(c5ccccc5)c5ccccc5)N4C(=O)C(NC(=O)C(C)NC)C3)c2)CCC2CCC(C(=O)NC(c3ccccc3)c3ccccc3)N2C1=O | 1.31
CCN1C(C(=O)NC23CCC(C(=O)O)(CC2)CC3)C(c2cccc(Cl)c2F)C2(C(=O)Nc3cc(Cl)ccc32)C12CCCCC2 (stereo unspecified) + Cc1c(S(C)(=O)=O)c(-c2cc(F)cc(N3CCN(c4ccc(NS(=O)(=O)c5ccc(NC(CCN6CCC(C(=O)OCCCP(=O)(O)O)CC6)CSc6ccccc6)c(S(=O)(=O)C(F)(F)F)c5)cc4)CC3)c2)c(-c2ccc(Cl)cc2)n1C(C)C | 90.3
Cc1nc(N2CCC3(CC2)COC(C)C3N)c(CO)nc1Sc1ccnc(N)c1Cl (stereo unspecified) + CNC(C)C(=O)NC1CN(S(=O)(=O)c2cccc(S(=O)(=O)N3CCC4CCC(C(=O)NC(c5ccccc5)c5ccccc5)N4C(=O)C(NC(=O)C(C)NC)C3)c2)CCC2CCC(C(=O)NC(c3ccccc3)c3ccccc3)N2C1=O | 38.1

Query: For the molecule Cc1nc(N2CCC3(CC2)COC(C)C3N)c(CO)nc1Sc1ccnc(N)c1Cl (stereo unspecified) + Cc1c(S(C)(=O)=O)c(-c2cc(F)cc(N3CCN(c4ccc(NS(=O)(=O)c5ccc(NC(CCN6CCC(C(=O)OCCCP(=O)(O)O)CC6)CSc6ccccc6)c(S(=O)(=O)C(F)(F)F)c5)cc4)CC3)c2)c(-c2ccc(Cl)cc2)n1C(C)C , report viability, T/C.
Result: 74.4

Origin of the recorded values: PubChem BioAssay AID1963427
